# subject-of-test: T1, human BR3 extracellular domain (human, UniProt Q96RJ3 1-61)
# T1 construct: biotinylated where used as tracer; also called hBR3-ECD; BR3-ECD
# measurement-protocol: SPR, BR3 ECD on chip;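 note: Anti-BR3 antibodies passed over the chip at high flow in PBS with 0.05% polysorbate 20, on and off rates fitted together globally to a 1:1 binding model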
Binarize koff at 0.0007 s⁻¹; below is YES, at or above is NO.

Here are 8 binders together with their reported answers.
binder	assigned-label
chimeric 11G9 IgG (antibody, V domains shown, also called Ch 11G9 IgG) VH: DVQLQESGPSLVKPSQTLSLTCSVTGDSITSGYWNWIRKFPGNKLEYMGYISYSGSTYYNPSLKSRISITRDTSKNQFYLQLLSVTTEDTATYYCAGLDGLYWYFDVWGAGTLVTVSS VL: DIVMTQTPLSLPVSLGDQASISCRSSQSLVHSNGNTYLHWYLQKPGQSPKLLIYKVSNRFSGVPDRFSGSGSGTDFTLKISRVEAEDLGVYFCSQSTHVPPFTFGSGT	YES
Hu2.1-94 Fab (Fab, V domains shown, Fab) VH: EVQLVESGGGLVQPGGSLRLSCAASGDSITRGYWNWVRQAPGKGLEWVGYINYSGTTYYNPSLKSRFTISRDTSKNTLYLQMNSLRAEDTAVYYCATSHNTGEMDYWGQGTLVTVSS VL: DIQMTQSPSSLSASVGDRVTITCRASESVDDYGISFMHWYQQKPGKAPKLLIYRASDLESGVPSRFSGSGSGTDFTLTISSLQPEDFATYYCQQTSKDPWTFGQGTKVEIKR	NO
Hu2.1-30 IgG (antibody, V domains shown, humanized IgG; also called h2.1-30) VH: EVQLVESGGGLVQPGGSLRLSCAASGDSITRGYWNWVRQAPGKGLEWVGYINYSGTTYYNPSLKSRFTISRDTSKNTFYLQMNSLRAEDTAVYYCANLNYYGAMDYWGQGTLVTVSS VL: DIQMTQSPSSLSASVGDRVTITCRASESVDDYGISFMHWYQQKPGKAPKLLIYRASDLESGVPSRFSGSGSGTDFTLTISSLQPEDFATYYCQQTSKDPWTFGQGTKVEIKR	YES
Hu9.1-88 IgG (antibody, V domains shown, humanized IgG; also called h9.1-88) VH: EVQLVESGGGLVQPGGSLRLSCAASGFPVTGSYVSWVRQAPGKGLEWVGFIRDKANGYTTEYNPSVKGRFTISRDTSKNTLYLQMNSLRAEDTAVYYCAQVRRALDYWGQGTLVTVSS VL: DIQMTQSPSSLSASVGDRVTITCKSSQSLLYSSNQNNYLAWYQQKPGKAPKLLIYWASTRESGVPSRFSGSGSGTDFTLTISSLQPEDFATYYCQQYYTYPYTFGQGTKVEIKR	YES
Hu2.1-46 IgG (antibody, V domains shown, humanized IgG; also called h2.1-46) VH: EVQLVESGGGLVQPGGSLRLSCAASGDSITRGYWNWVRQAPGKGLEWVGYINYSGTTYYNPSLKSRFTISRDTSKNTFYLQMNSLRAEDTAVYYCANSNFYGAMDYWGQGTLVTVSS VL: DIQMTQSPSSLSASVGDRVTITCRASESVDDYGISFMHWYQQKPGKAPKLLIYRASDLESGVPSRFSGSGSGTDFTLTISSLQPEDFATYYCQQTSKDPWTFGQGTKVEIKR	YES
Hu9.1-88 Fab (Fab, V domains shown, Fab) VH: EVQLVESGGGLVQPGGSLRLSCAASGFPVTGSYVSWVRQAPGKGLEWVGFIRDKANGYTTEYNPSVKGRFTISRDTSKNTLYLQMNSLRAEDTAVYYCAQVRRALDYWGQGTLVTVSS VL: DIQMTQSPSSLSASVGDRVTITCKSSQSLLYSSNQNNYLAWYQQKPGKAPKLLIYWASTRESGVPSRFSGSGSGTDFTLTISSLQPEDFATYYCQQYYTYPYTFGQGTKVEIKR	NO
Hu2.1-RL Fab (Fab, V domains shown, Fab) VH: EVQLVESGGGLVQPGGSLRLSCAASGDSITRGYWNWVRQAPGKGLEWVGYINYSGTTYYNPSLKSRFTISRDTSKNTLYLQMNSLRAEDTAVYYCATPHTYGAMDYWGQGTLVTVSS VL: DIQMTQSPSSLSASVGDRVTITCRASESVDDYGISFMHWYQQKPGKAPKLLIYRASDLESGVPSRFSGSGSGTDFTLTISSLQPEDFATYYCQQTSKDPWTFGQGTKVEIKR	NO
Hu9.1-RF Fab (Fab, V domains shown) VH: EVQLVESGGGLVQPGGSLRLSCAASGFTVTAYYMSWVRQAPGKGLEWVGFIRDKANGYTTEYNPSVKGRFTISRDTSKNTFYLQMNSLRAEDTAVYYCAQVRRALDYWGQGTLVTVSS VL: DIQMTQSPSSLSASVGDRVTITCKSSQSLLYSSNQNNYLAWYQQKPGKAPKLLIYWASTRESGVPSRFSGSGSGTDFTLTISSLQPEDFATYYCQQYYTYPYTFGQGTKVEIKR	YES

Q: Is koff strictly under 0.0007 s⁻¹ for the entry Hu2.1-94 IgG (antibody, V domains shown, humanized IgG; also called h2.1-94) VH: EVQLVESGGGLVQPGGSLRLSCAASGDSITRGYWNWVRQAPGKGLEWVGYINYSGTTYYNPSLKSRFTISRDTSKNTLYLQMNSLRAEDTAVYYCATSHNTGEMDYWGQGTLVTVSS VL: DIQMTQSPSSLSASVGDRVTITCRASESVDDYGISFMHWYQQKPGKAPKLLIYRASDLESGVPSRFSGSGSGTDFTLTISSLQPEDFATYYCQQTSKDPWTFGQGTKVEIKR ?
Result: YES
